meta.source: ChEMBL document CHEMBL5260795

System: Colletotrichum acutatum
ASSAY NAME: Antimicrobial activity against Colletotrichum acutatum incubated for 72 hrs by standard broth dilution method
Assay type: functional
We begin with a simple list: items and their reported MIC.
MEASURED QUANTITY: MIC (µg/mL)

>>> print(df.to_string())
                                smiles_data  reported
0  CO[C@H]1/C=C/C=C/CCC[C@@H](C)OC(=O)/C=C\C=C\C[C@H](O[C@@H]2O[C@@H](CO)[C@@H](O)[C@H](O)[C@H]2O)/C=C/C=C\C[C@H](O)C1      0.02
1  C[C@@H]1CCCCC/C=C/[C@H](O)C[C@@H](O)C/C=C\C=C\[C@@H](O)C/C=C/C=C\C(=O)O1      0.02
2  C[C@@H]1CCC/C=C/C=C/[C@H](O)C[C@@H](O)C/C=C\C=C\[C@@H](O[C@@H]2O[C@@H](CO)[C@H](O)[C@@H](O)[C@@H]2O)C/C=C/C=C\C(=O)O1      0.02
